experiment: Microsomal stability assay, rat liver microsomes; details: rat liver microsomes;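 note: rat liver microsomes (0.25 mg/mL) with about 1 µM compound plus 1 mM NADPH, pH 7.4, 37 °C for 30 min, parent left measured by LC-MS/MS against 0 min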
RLM of 80 µL/min/mg or higher: Satisfied. Under 80 µL/min/mg: Not satisfied.

1) CO[C@H](C)C(=O)N[C@@H](Cc1ccc2c(c1)OCO2)[C@H](O)CN[C@H]1CC2(CCC2)Oc2ncc(CC(C)(C)F)cc21	Not satisfied
2) CC(C)(C)Cc1cnc2c(c1)[C@@H](NC[C@@H](O)[C@H](Cc1ccc(F)cc1)NC(=O)[C@H]1CN(Cc3ccccc3)CCO1)CC1(CCC1)O2	Satisfied
3) COCC(=O)N[C@@H](Cc1cc(F)cc(-c2nccs2)c1)[C@H](O)CN[C@H]1CC2(CCC2)Oc2ncc(CC(C)C)cc21	Not satisfied
4) COCC(=O)N[C@@H](Cc1cccc(F)c1)[C@H](O)CN[C@H]1CC2(CCC2)Oc2c(-c3ccnc(OC)c3)cc(CC(C)(C)C)cc21	Satisfied
5) COCC(=O)N[C@@H](Cc1ccc(F)c(-c2nccs2)c1)[C@H](O)CN[C@H]1CC2(CCC2)Oc2ncc(CC(C)(C)F)cc21	Not satisfied
6) COCC(=O)N[C@@H](Cc1cncs1)[C@H](O)CN[C@H]1CC2(CCC2)Oc2c(-c3ccncc3)cc(CC(C)(C)C)cc21	Satisfied
7) CC(=O)N[C@@H](Cc1cc(F)cc(-c2nccs2)c1)[C@H](O)CN[C@H]1CC2(CCC2)Oc2ncc(CC(C)(C)C)cc21 [Example 643]	Not satisfied
8) COCC(=O)N[C@@H](Cc1ccc2c(c1)OCO2)[C@H](O)CN[C@H]1CC2(CCC2)Oc2ncc([C@@H]3CC3(C)C)cc21	Satisfied
9) CO[C@H](C)C(=O)N[C@@H](Cc1cccc(F)c1)[C@H](O)CN[C@H]1CC2(CCC2)Oc2c(-c3ccncc3)cc(CC(C)C)cc21	Satisfied
10) COCC(=O)N[C@@H](Cc1cccc(F)c1)[C@H](O)CN[C@H]1CC2(CCC2)Oc2c(-c3ccnc(Cl)c3)cc(CC(C)(C)C)cc21	Satisfied
11) COCC(=O)N[C@@H](Cc1cc(F)cc(F)c1)[C@H](O)CN[C@H]1CC2(CCC2)Oc2c(-c3ccncc3)cc(CC(C)C)cc21	Not satisfied
12) COCC(=O)N[C@@H](Cc1cccc(F)c1)[C@H](O)CN[C@H]1CC2(CCC2)Oc2c1cc(C=C(C)C)cc2-n1ccnc1	Satisfied
13) CO[C@H](C)C(=O)N[C@@H](Cc1ccccc1)[C@H](O)CN[C@H]1CC2(CCC2)Oc2c(-c3ccncc3)cc(CC(C)C)cc21	Satisfied
14) CC(=O)N[C@@H](Cc1cc(Br)c2c(c1)OCO2)[C@H](O)CN[C@H]1CC2(CCC2)Oc2ncc(CC(C)(C)F)cc21	Satisfied
15) COCC(=O)N[C@@H](Cc1cc(F)cc(F)c1)[C@H](O)CN[C@H]1CC2(CCC2)Oc2c1cc(CC(C)(C)C)nc2-c1cncn1C	Not satisfied

----------
assay: Microsomal stability assay, human liver microsomes; conditions: human liver microsomal data;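 note: pooled human liver microsomes at 0.25 mg/mL with 1 µM compound and NADPH at 37 °C, pH 7.4, for 30 min, unchanged parent quantified by LC-MS/MS against the 0 min sample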
We use 100 µL/min/mg as the dividing line for HLM: on or above the line is 1.0, below is 0.0.

1) Cc1nc(CN2CCO[C@H](C(=O)N[C@@H](Cc3ccc(F)cc3)[C@H](O)CN[C@H]3CC4(CCC4)Oc4ncc(CC(C)(C)C)cc43)C2)cs1	1.0
2) CC(C)(C)Cc1cnc2c(c1)[C@@H](NC[C@@H](O)[C@H](Cc1cc(F)cc(-c3nccs3)c1)NC(=O)[C@H]1CCCO1)CC1(CCC1)O2	0.0
3) COCC(=O)N[C@@H](Cc1ccc2c(c1)OCO2)[C@H](O)CN[C@H]1CC2(CCC2)Oc2ccc(C[C@@H](C)F)cc21 [compound 558]	1.0
4) CCC(=O)N[C@@H](Cc1cc(F)cc(-c2nccs2)c1)[C@H](O)CN[C@H]1CC2(CCC2)Oc2ncc(CC(C)(C)C)cc21	0.0
5) CC(=O)N[C@@H](Cc1cc(F)cc(F)c1)[C@H](O)CN[C@H]1CC2(CCC2)Oc2c1cc(CC(C)(C)C)nc2-n1ccnc1	0.0
6) COC(OC)C(=O)N[C@@H](Cc1cc(F)cc(-c2nccs2)c1)[C@H](O)CN[C@H]1CC2(CCC2)Oc2ncc(CC(C)(C)C)cc21	0.0
7) CC(C)Cc1cnc2c(c1)[C@@H](NC[C@@H](O)[C@H](Cc1ccc3c(c1)OCO3)NC(=O)[C@H]1CCCO1)CC1(CCC1)O2	0.0
8) COCC(=O)N[C@@H](Cc1ccc(F)cc1)[C@H](O)CN[C@H]1CC2(CCC2)Oc2ncc(C(F)(F)C(C)(C)C)cc21	1.0
9) COCC(=O)N[C@@H](Cc1cc(F)cc(F)c1)[C@H](O)CN[C@H]1CC2(CCC2)Oc2c(-c3cncs3)cc(CC(C)C)cc21	1.0
10) COC(OC)C(=O)N[C@@H](Cc1cccc(-c2nccs2)c1)[C@H](O)CN[C@H]1CC2(CCC2)Oc2ncc(CC(C)C)cc21	0.0
11) CC(C)(C)Cc1cnc2c(c1)[C@@H](NC[C@@H](O)[C@H](Cc1cc(F)cc(-c3nccs3)c1)NC(=O)C1CCC1)CC1(CCC1)O2	0.0
12) CC1(C)C[C@H]1c1cnc2c(c1)[C@@H](NC[C@@H](O)[C@H](Cc1cccc(-c3nccs3)c1)NC(=O)[C@@H]1CCCO1)CC1(CCC1)O2	0.0
